Reference source for all entries: patent US8541449B2

Assignment: determine reported Selectivity against PKA for the given compounds.
target: recombinant human PKA (Homo sapiens); construct: Active recombinant human PKA (residues 1-351, N-terminal His-tag); His-tag (N); purchased Invitrogen, Karlsruhe, Germany; assay: Determination of Protein Kinase A inhibition (Caliper peptide phosphorylation assay); format: biochemical; details: recombinant human PKA versus ROCK II

Please review the following examples before continuing.
compound	Selectivity against PKA
NC(C1CC1)[C@]1(c2ccc(F)cc2)CC[C@H](Oc2cc3cc[nH]c(=O)c3cc2Cl)CC1 (stereo partly shown)	>1000
CC(C)(N)[C@]1(c2ccc(F)cc2)CC[C@@H](Oc2cc3cc[nH]c(=O)c3cc2Cl)CC1	>300
CCC(N)[C@]1(c2cccc(C(F)(F)F)c2)CC[C@H](Oc2cc3cc[nH]c(=O)c3cc2Cl)CC1 (stereo partly shown)	>100
CC(C)(N)[C@]1(c2ccccc2)CC[C@H](Oc2cc3cc[nH]c(=O)c3cc2Cl)CC1	>1000
CC(C)CC(N)[C@]1(c2ccccc2)CC[C@@H](Oc2cc3cc[nH]c(=O)c3cc2Cl)CC1 (stereo partly shown)	>100
CCCC(C)(N)C1CCC(Oc2cc3cc[nH]c(=O)c3cc2Cl)CC1 (single isomer, unassigned) [Example 121]	>100

Now let's try a different one.
Missing value: Selectivity against PKA, recombinant human PKA (Homo sapiens), entry CCC(N)[C@]1(c2ccccc2Cl)CC[C@H](Oc2cc3cc[nH]c(=O)c3cc2Cl)CC1 (stereo partly shown) . Fill in?
>100

----------
Target: recombinant human PKG1-beta (Homo sapiens, UniProt Q13976)
Construct: Active recombinant human PKG1-beta (full-length, with N-terminal His-tag); His-tag (N); purchased Millipore GmbH, Schwalbach, Germany
Sequence (Q13976 1-686 isoform Q13976-2): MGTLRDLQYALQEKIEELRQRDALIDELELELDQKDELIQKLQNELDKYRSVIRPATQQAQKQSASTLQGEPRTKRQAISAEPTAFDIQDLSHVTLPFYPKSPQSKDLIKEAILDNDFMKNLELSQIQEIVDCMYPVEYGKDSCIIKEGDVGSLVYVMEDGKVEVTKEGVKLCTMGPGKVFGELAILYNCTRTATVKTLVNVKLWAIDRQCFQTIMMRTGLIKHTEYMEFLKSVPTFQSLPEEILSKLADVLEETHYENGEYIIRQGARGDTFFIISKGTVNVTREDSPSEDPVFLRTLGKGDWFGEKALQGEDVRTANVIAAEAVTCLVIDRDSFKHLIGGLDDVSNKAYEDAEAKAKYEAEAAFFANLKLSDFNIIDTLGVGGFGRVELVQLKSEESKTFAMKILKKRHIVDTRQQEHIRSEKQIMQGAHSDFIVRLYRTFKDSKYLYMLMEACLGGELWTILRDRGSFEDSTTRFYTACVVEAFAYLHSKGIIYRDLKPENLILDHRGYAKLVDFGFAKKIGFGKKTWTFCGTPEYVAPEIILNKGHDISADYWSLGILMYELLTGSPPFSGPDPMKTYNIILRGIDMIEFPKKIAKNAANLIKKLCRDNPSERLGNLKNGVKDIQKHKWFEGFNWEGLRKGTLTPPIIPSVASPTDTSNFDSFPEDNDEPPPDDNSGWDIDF
Assay: Determination of Protein Kinase G inhibition (Caliper peptide phosphorylation assay)
Assay type: biochemical
Settings: recombinant human PKG1-beta versus ROCK II
Protocol: Determination of Protein Kinase A and Protein Kinase G Inhibition To measure PKA and PKG1-beta inhibition, IC50 values were determined according to the following protocol: Active recombinant human PKG1-beta (full-length, with N-terminal His-tag) was purchased from Millipore GmbH, Schwalbach, Germany. Active recombinant human PKA (residues 1-351, N-terminal His-tag) was obtained from Invitrogen, Karlsruhe, Germany. […]
Assignment: determine reported Selectivity against PKG for the given molecules.

Please review the following examples before continuing.
molecule	Selectivity against PKG
CCC(N)[C@]1(c2ccccc2)CC[C@H](Oc2cc3cc[nH]c(=O)c3cc2C)CC1 (stereo partly shown)	>10
CC(C)CC(N)[C@]1(c2ccccc2)CC[C@@H](Oc2cc3cc[nH]c(=O)c3cc2Cl)CC1 (stereo partly shown)	>100
CCCC(N)[C@]1(c2ccc(F)cc2)CC[C@H](Oc2cc3cc[nH]c(=O)c3cc2Cl)CC1 (stereo partly shown)	>300

Now let's try a different one.
// Selectivity against PKG lookup, key: `CC(C)(N)[C@]1(c2ccccc2)CC[C@H](Oc2cc3cc[nH]c(=O)c3cc2Cl)CC1`
>100

----------
target: human recombinant ROCK II (Homo sapiens, UniProt O75116); construct: N-terminal His6-tagged recombinant human ROCK-II residues 11-552; His6 (N); purchased Millipore GmbH, Schwalbach, Germany; assay: Determination of Rho kinase inhibition (Caliper peptide phosphorylation assay); assay type: biochemical; conditions: 60 min at 32° C., negative decadal logarithm of the IC50
Sequence (O75116 11-552): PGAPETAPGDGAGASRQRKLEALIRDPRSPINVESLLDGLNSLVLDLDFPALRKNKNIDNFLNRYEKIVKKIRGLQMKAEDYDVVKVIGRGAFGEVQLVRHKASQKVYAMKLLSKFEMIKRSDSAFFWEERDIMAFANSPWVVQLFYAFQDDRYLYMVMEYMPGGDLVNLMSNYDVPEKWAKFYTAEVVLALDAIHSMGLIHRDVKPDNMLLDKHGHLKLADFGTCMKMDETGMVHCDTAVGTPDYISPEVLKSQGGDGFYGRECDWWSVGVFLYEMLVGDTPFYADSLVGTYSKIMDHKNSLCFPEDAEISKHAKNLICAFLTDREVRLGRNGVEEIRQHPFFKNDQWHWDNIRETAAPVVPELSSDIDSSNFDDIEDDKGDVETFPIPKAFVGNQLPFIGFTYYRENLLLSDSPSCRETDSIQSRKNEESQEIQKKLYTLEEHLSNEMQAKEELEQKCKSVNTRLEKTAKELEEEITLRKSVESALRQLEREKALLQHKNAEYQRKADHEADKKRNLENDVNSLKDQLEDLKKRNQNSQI
measurement-label: pIC50

Please review the following examples before continuing.
compound	pIC50
CCC(N)[C@]1(c2ccccc2)CC[C@H](Oc2cc3cc[nH]c(=O)c3cc2C)CC1 (stereo partly shown) [Example 11]	++++++ (7.0≦pIC50<8.0)
CCC(N)[C@]1(c2ccccc2C)CC[C@H](Oc2cc3cc[nH]c(=O)c3cc2Cl)CC1 (stereo partly shown) [Example 60]	+++++++ (8.0≦pIC50)
CCC(N)[C@]1(c2ccc(F)cc2C)CC[C@H](Oc2cc3cc[nH]c(=O)c3cc2Cl)CC1 (stereo partly shown) [Example 57]	+++++++ (8.0≦pIC50)
CCC(N)[C@]1(c2ccc(Br)cc2)CC[C@H](Oc2cc3cc[nH]c(=O)c3cc2Cl)CC1 (stereo partly shown) [Example 6]	+++++++ (8.0≦pIC50)
CCC(N)[C@]1(c2ccc(F)c(F)c2)CC[C@H](Oc2cc3cc[nH]c(=O)c3cc2C)CC1 (stereo partly shown) [Example 65]	+++++ (6.0≦pIC50<7.0)

State the recorded pIC50 for every item in the following list.
1. CCC(N)[C@]1(c2ccc(C(F)(F)F)cc2)CC[C@H](Oc2cc3cc[nH]c(=O)c3cc2Cl)CC1 (stereo partly shown) [Example 8]
2. CCC(N)[C@]1(c2cc(F)cc(F)c2)CC[C@H](Oc2cc3cc[nH]c(=O)c3cc2F)CC1 (stereo partly shown) [Example 66]
3. CCC(N)[C@]1(c2ccc(F)c(F)c2)CC[C@H](Oc2cc3cc[nH]c(=O)c3cc2Cl)CC1 (stereo partly shown) [Example 59]
4. CCC(N)[C@]1(c2cccc(S(C)(=O)=O)c2)CC[C@H](Oc2cc3cc[nH]c(=O)c3cc2Cl)CC1 (stereo partly shown) [Example 99]
5. CCC(N)[C@]1(c2ccccc2F)CC[C@H](Oc2cc3cc[nH]c(=O)c3cc2Cl)CC1 (stereo partly shown) [Example 9]

+++++++ (8.0≦pIC50)
+++++ (6.0≦pIC50<7.0)
+++++++ (8.0≦pIC50)
+++++++ (8.0≦pIC50)
+++++++ (8.0≦pIC50)

State the recorded pIC50 for every item in the following list.
1. CCC(N)[C@]1(c2ccccc2Cl)CC[C@H](Oc2cc3cc[nH]c(=O)c3cc2Cl)CC1 (stereo partly shown) [Example 10]
2. NC(C1CC1)[C@]1(c2ccccc2)CC[C@H](Oc2cc3cc[nH]c(=O)c3cc2Cl)CC1 (stereo partly shown) [Example 26]
3. CCC(N)[C@]1(c2ccccc2)CC[C@@H](Oc2cc3cc[nH]c(=O)c3cc2Cl)CC1 (stereo partly shown) [Example 32]
4. CCC(N)[C@]1(c2ccccc2OC(F)(F)F)CC[C@H](Oc2cc3cc[nH]c(=O)c3cc2Cl)CC1 (stereo partly shown) [Example 61]
5. CCC(N)[C@]1(c2ccc(C#N)cc2)CC[C@H](Oc2cc3cc[nH]c(=O)c3cc2Cl)CC1 (stereo partly shown) [Example 97]
6. CCC(N)[C@]1(c2ccccn2)CC[C@H](Oc2cc3cc[nH]c(=O)c3cc2Cl)CC1 (stereo partly shown) [Example 55]

+++++++ (8.0≦pIC50)
+++++++ (8.0≦pIC50)
++++++ (7.0≦pIC50<8.0)
+++++ (6.0≦pIC50<7.0)
+++++++ (8.0≦pIC50)
+++++++ (8.0≦pIC50)

----------
target: recombinant human PKA (Homo sapiens); construct: Active recombinant human PKA (residues 1-351, N-terminal His-tag); His-tag (N); purchased Invitrogen, Karlsruhe, Germany; assay: Determination of Protein Kinase A inhibition (Caliper peptide phosphorylation assay); format: biochemical; conditions: recombinant human PKA versus ROCK II
Assignment: determine reported Selectivity against PKA for the given molecules.

Please review the following examples before continuing.
molecule	measured-value
CC(N)(C1CCC(Oc2cc3cc[nH]c(=O)c3cc2Cl)CC1)C1CC1 (single isomer, unassigned) [Example 120]	>100
CCC(N)[C@]1(c2cccc(S(C)(=O)=O)c2)CC[C@H](Oc2cc3cc[nH]c(=O)c3cc2Cl)CC1 (stereo partly shown) [Example 99]	>1000
CCC(N)[C@]1(c2ccc(C#N)cc2)CC[C@H](Oc2cc3cc[nH]c(=O)c3cc2Cl)CC1 (stereo partly shown) [Example 97]	>1000
CCC(N)[C@]1(c2ccccc2)CC[C@H](Oc2c(F)cc3c(=O)[nH]ccc3c2C)CC1 (stereo partly shown) [Example 88]	>10
Cc1ccc(C(N)C2CCC(Oc3cc4cc[nH]c(=O)c4cc3Cl)CC2)cc1 (single isomer, unassigned) [Example 39]	>100

State the recorded Selectivity against PKA for every item in the following list.
1. CCC(N)[C@]1(c2cccc(Br)c2)CC[C@@H](Oc2cc3cc[nH]c(=O)c3cc2Cl)CC1 (stereo partly shown) [Example 16]
2. CCCC(N)[C@]1(c2ccccc2)CC[C@H](Oc2cc3cc[nH]c(=O)c3cc2Cl)CC1 (stereo partly shown) [Example 4]

1: >300; 2: >1000

----------
target: recombinant human PKG1-beta (Homo sapiens, UniProt Q13976); construct: Active recombinant human PKG1-beta (full-length, with N-terminal His-tag); His-tag (N); purchased Millipore GmbH, Schwalbach, Germany; test: Determination of Protein Kinase G inhibition (Caliper peptide phosphorylation assay); assay type: biochemical; conditions: recombinant human PKG1-beta versus ROCK II
measurement-label: Selectivity against PKG

Please review the following examples before continuing.
molecule	Selectivity against PKG
CCC(N)[C@]1(c2ccc(F)cc2)CC[C@H](Oc2cc3cc[nH]c(=O)c3cc2Cl)CC1 (stereo partly drawn)	>1000
CCOc1cccc([C@]2(C(N)CC)CC[C@@H](Oc3cc4cc[nH]c(=O)c4cc3Cl)CC2)c1 (stereo partly drawn)	>300

State the recorded Selectivity against PKG for every item in the following list.
1. CCC(N)[C@]1(c2ccccc2Cl)CC[C@H](Oc2cc3cc[nH]c(=O)c3cc2Cl)CC1 (stereo partly drawn)
2. CC(N)(C1CCC(Oc2cc3cc[nH]c(=O)c3cc2Cl)CC1)C1CC1 (single isomer, unassigned)
3. COc1ccc(C(N)[C@H]2CC[C@@H](Oc3cc4cc[nH]c(=O)c4cc3Cl)CC2)cc1 (single isomer, unassigned) [Example 35]
4. CCC(N)[C@]1(c2ccccc2C)CC[C@H](Oc2cc3cc[nH]c(=O)c3cc2Cl)CC1 (stereo partly drawn)
5. NC(C1CCC(Oc2cc3cc[nH]c(=O)c3cc2Cl)CC1)C1CC1 (single isomer, unassigned) [Example 132]
6. NC(c1ccc(F)cc1)C1CCC(Oc2cc3cc[nH]c(=O)c3cc2Cl)CC1 (single isomer, unassigned)
7. CCC(N)[C@]1(c2ccc(F)c(OC)c2)CC[C@H](Oc2cc3cc[nH]c(=O)c3cc2Cl)CC1 (stereo partly drawn)

[">100", ">10", ">100", ">100", ">10", ">300", ">300"]

State the recorded Selectivity against PKG for every item in the following list.
1. CCC(N)[C@]1(c2ccc(OC(F)(F)F)cc2)CC[C@H](Oc2cc3cc[nH]c(=O)c3cc2Cl)CC1 (stereo partly drawn)
2. NC(CF)[C@]1(c2ccc(F)cc2)CC[C@H](Oc2cc3cc[nH]c(=O)c3cc2Cl)CC1 (stereo partly drawn)

1. >1000
2. >1000
